In this section, each of the molecules is paired with its reported IC50.
Target: KDR (Homo sapiens, UniProt P35968)
Sequence (P35968 20-1356): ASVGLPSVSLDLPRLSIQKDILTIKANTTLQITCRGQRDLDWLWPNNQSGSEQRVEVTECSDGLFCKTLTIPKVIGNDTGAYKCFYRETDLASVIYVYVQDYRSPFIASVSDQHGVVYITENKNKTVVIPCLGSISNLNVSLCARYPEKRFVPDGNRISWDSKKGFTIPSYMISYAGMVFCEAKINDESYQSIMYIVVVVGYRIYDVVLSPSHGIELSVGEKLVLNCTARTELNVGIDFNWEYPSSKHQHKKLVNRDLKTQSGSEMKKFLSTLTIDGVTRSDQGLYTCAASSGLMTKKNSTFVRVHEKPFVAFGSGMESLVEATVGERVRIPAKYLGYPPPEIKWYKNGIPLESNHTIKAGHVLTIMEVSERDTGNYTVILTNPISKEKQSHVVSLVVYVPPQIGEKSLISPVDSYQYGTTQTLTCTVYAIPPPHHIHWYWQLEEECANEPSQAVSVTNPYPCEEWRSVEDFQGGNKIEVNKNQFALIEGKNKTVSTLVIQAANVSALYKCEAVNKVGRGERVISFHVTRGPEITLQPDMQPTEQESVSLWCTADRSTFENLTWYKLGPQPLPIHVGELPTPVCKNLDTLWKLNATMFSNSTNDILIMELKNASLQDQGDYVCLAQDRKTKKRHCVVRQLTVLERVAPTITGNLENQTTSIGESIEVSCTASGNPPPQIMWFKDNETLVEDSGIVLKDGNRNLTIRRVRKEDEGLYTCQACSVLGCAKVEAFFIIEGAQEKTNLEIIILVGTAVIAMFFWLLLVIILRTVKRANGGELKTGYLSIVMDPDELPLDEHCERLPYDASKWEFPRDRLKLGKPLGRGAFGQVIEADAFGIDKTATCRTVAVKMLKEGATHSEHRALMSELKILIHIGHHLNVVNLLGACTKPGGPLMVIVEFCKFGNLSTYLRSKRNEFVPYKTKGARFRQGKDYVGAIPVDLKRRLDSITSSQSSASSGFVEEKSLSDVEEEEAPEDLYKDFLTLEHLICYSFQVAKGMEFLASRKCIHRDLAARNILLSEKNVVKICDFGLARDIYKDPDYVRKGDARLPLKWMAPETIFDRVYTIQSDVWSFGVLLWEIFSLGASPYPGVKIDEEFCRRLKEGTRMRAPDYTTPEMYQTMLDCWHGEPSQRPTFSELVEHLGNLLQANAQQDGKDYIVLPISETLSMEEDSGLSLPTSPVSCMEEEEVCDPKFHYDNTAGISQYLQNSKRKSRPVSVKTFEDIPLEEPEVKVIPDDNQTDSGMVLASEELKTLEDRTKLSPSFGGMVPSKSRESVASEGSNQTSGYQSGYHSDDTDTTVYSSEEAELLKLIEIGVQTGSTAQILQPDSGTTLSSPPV
Test: KDR autophosphorylation ELISA in HUVEC cells
Type: cell-based
Parameters: endogenous in cells; host or cells: HUVEC (Lonza #C2519A)
Details: Table 3 Cellular Activities, VEGF165-stimulated, phospho-KDR ELISA
QUANTITY_KIND: IC50

[[record]]
compound_string = "COc1cc2nccc(Oc3ccc(NC(=O)c4ccc(C)n(-c5cc[n+]([O-])cc5)c4=O)cc3F)c2nc1OC"
quantity_kind = "IC50"
result = "100 to 300 nM"

[[record]]
compound_string = "COc1cc2nccc(Oc3ccc(NC(=O)c4c(C)n(C)c(C)c(-c5cccs5)c4=O)cc3)c2nc1OC"
quantity_kind = "IC50"
result = "300 to 1000 nM"

[[record]]
compound_string = "COc1cnc2c(Oc3ccc(NC(=O)c4cn(CCF)c(C)c(-c5ccoc5)c4=O)cc3F)ccnc2c1"
quantity_kind = "IC50"
result = "300 to 1000 nM"

[[record]]
compound_string = "COc1cc2nccc(Oc3ccc(NC(=O)c4c(C)n(C)c(C)c(-c5cc6ccccc6o5)c4=O)cc3F)c2nc1OC"
quantity_kind = "IC50"
result = "300 to 1000 nM"

